tested on: E. coli BW25113; assay: MIC assay; type: cell-based; conditions: Escherichia coli, BW25113, compound alone
Can you tell me MIC for the items I'm about to list?

Prompt: Fill in the blank: the reported MIC of N=C(N)c1ccc(OCCCCCOc2ccc(C(=N)N)cc2)cc1 [compound 1, reference compound] is ____.
Completion: ≥ 200 µg/mL

Prompt: Fill in the blank: the reported MIC of N=C(N)c1ccc(OCCSCCOc2ccc(C(=N)N)cc2)cc1 is ____.
Completion: > 200 µg/mL

Prompt: Fill in the blank: the reported MIC of N=C(N)c1ccc(OCCCOc2ccc(C(=N)N)cc2)cc1 is ____.
Completion: ≥ 200 µg/mL

Prompt: Fill in the blank: the reported MIC of N=C(N)c1ccc(OCCCCCCCOc2ccc(C(=N)N)cc2)cc1 is ____.
Completion: 200 µg/mL

Prompt: Fill in the blank: the reported MIC of N=C(N)c1ccc(OCCS(=O)(=O)CCOc2ccc(C(=N)N)cc2)cc1 is ____.
Completion: > 200 µg/mL
